The measured values listed here are drawn from paper PMC5700166.

Listed below: binding signal values for each entry.
Biological target: GST-Ap-NF-kB RHD (Exaiptasia pallida (Aiptasia), UniProt A0A913YAJ5 2-422)
Sequence: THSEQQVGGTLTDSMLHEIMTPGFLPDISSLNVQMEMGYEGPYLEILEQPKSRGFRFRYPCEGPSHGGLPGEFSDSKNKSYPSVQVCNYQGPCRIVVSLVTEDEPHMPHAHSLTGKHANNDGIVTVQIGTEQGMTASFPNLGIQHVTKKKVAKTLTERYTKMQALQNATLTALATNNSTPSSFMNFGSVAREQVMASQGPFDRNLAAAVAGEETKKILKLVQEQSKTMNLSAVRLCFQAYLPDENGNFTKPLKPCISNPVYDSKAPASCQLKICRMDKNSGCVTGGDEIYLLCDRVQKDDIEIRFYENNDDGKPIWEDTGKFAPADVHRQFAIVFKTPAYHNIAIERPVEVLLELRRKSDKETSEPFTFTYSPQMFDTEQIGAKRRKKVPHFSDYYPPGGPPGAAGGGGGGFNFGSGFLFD
Experiment: protein-binding microarray (PBM); PBM: ~300 nM protein, 6 mM HEPES pH 7.8, 80 mM KCl, 0.5 mM EDTA, 0.5 mM EGTA, 6% glycerol, 35 ng/ul poly-dIdC, 1% milk, 1 h, room temperature; Ap Aiptasia and Nv Nematostella (sea anemones) / Co Capsaspora / Aq Amphimedon (sponge) / Dm Drosophila / Hu human; RHD is the Rel homology domain; high values mean tight binding
Conditions: dsDNA, one strand shown
The reply should consist of the numeric value with the unit placed after it.

chainSequence: CCGATTAACATCACCGGGAATTCTGATGTTAATCGGGTCTTGATTCGCTTGACGCTGCTG
binding signal: 4.62 z-score
--
chainSequence: CCGATTAACATCAGGAAAGACCCTGATGTTAATCGGGTCTTGATTCGCTTGACGCTGCTG
binding signal: 2.17 z-score
--
chainSequence: CCGATTAACATCAGGGATCTACCTGATGTTAATCGGGTCTTGATTCGCTTGACGCTGCTG
binding signal: 3.06 z-score
--
chainSequence: CCGATTAACATCAGATTTCCCCATGATGTTAATCGGGTCTTGATTCGCTTGACGCTGCTG
binding signal: 7.4 z-score
--
chainSequence: CCGATTAACATCAAGCATCCCCCTGATGTTAATCGGGTCTTGATTCGCTTGACGCTGCTG
binding signal: 4.92 z-score

Proceeding to the next sequence to report its binding signal.
Prompt: Tell me its binding signal given CCGATTAACATCAGGGTATTTACTGATGTTAATCGGGTCTTGATTCGCTTGACGCTGCTG as the entry.
Response: 3.45 z-score
